Reported cytotoxicity at 70.5 h is given for each of the following molecules.
assay: Human HepG2 cell viability assay in 384 well format; assay type: toxicity, cell-based; design: dose 125 nL, time 70.5 hour; concentration not given beside the values; settings: HepG2 cells, read-out: Inhibition
Readout: cytotoxicity at 70.5 h (%)

> print(dat)
                                    molecule  measure.unit  observed
 1  CC1CCc2nn(CCNC(=O)C3CCCC3)c(=O)cc2C1 (configuration not stated)             %     -3.14
 2  Cc1ccc(N2CC[C@H]3C[C@H](C(=O)NCc4ccco4)O[C@@H]3C2)cc1             %       2.5
 3  COc1ccc(NC2CCN(C3CC3)C2=O)cn1 (configuration not stated)             %      5.36
 4          COCC(=O)Nc1ccccc1Sc1c(C)n[nH]c1C             %      25.1
 5     Cn1cccc1C(=O)N1CCC2(CCCN2c2ncccn2)CC1             %     -13.8
 6  O=C(CC1CCCCC1)N1CCOCC1CO (configuration not stated)             %     -14.9
 7            COc1ccc(-c2ccncc2)cc1CNC1CCCC1             %     -4.27
 8  COc1cccc(OCC2CCCN(C(=O)Cc3cccc(O)c3)C2)c1 (configuration not stated)             %     -11.3
 9  COCCN(C)Cc1cc(Cl)ccc1OCC(O)CN1CCCCCC1 (configuration not stated)             %     -11.6
10      O=C(NCCN1CCOCC1)Nc1cnc2cc(Cl)ccc2c1O             %      12.7
11              NC(=O)CS(=O)(=O)Cc1ccc(F)cc1             %     -1.66
12          COc1ncccc1-c1cc(C(=O)NC2CC2)ccn1             %      -8.1
